This listing pairs compounds with measured % ID Striatum.
- PROTOCOL_SUMMARY: Biodistribution studies of 11C tracers
- Format: in vivo, Wistar rats
- RECORDED_CONDITIONS: 2 min p.i.
QUANTITY_KIND: % ID Striatum (% ID)

> print(dat)
                                   compound  quantity.kind  observed.result
1  [11CH3]Oc1c(F)ccc(F)c1C1CCN(c2ccn3c(CC4CC4)nnc3c2Cl)CC1 [[^11C]B-2]  % ID Striatum            0.032
2  [11CH3]Oc1cc(F)cc(F)c1C1CCN(c2ccn3c(CC4CC4)nnc3c2Cl)CC1 [[^11C]B-7]  % ID Striatum            0.028
3  [11CH3]Oc1c(F)ccc(F)c1C1CCN(c2ccn3c(CC4CC4)nnc3c2C(F)(F)F)CC1 [[^11C]B-3]  % ID Striatum            0.028
4  [11CH3]Oc1ccc(F)cc1C1CCN(c2ccn3c(CC4CC4)nnc3c2Cl)CC1 [[^11C]B-4]  % ID Striatum            0.014
5  [11CH3]Oc1cccc(F)c1C1CCN(c2ccn3c(CC4CC4)nnc3c2Cl)CC1 [[^11C]B-6]  % ID Striatum            0.022
6  [11CH3]Oc1ccc(F)c(F)c1C1CCN(c2ccn3c(CC4CC4)nnc3c2Cl)CC1 [[^11C]B-10]  % ID Striatum            0.026

###

- PROTOCOL_SUMMARY: Biodistribution studies of 11C tracers
- Assay type: in vivo, Wistar rats
- RECORDED_CONDITIONS: 2 min p.i.
Field 'label' (enum: satisfied / not satisfied). Set to satisfied when % ID Rest of cerebrum is strictly under 0.4 % ID; else not satisfied.

> print(dat)
                                   compound  discrete.label
1  [11CH3]Oc1ccc(F)c(F)c1C1CCN(c2ccn3c(CC4CC4)nnc3c2Cl)CC1 [[^11C]B-10]       satisfied
2  [11CH3]Oc1c(F)ccc(F)c1C1CCN(c2ccn3c(CC4CC4)nnc3c2C(F)(F)F)CC1 [[^11C]B-3]   not satisfied
3  [11CH3]Oc1cc(F)cc(F)c1C1CCN(c2ccn3c(CC4CC4)nnc3c2Cl)CC1 [[^11C]B-7]   not satisfied
4  [11CH3]Oc1cccc(F)c1C1CCN(c2ccn3c(CC4CC4)nnc3c2Cl)CC1 [[^11C]B-6]       satisfied
5  [11CH3]Oc1c(F)ccc(F)c1C1CCN(c2ccn3c(CC4CC4)nnc3c2Cl)CC1 [[^11C]B-2]   not satisfied
6  [11CH3]Oc1ccc(F)cc1C1CCN(c2ccn3c(CC4CC4)nnc3c2Cl)CC1 [[^11C]B-4]       satisfied

###

Entries and their % ID Liver values follow.
- PROTOCOL_SUMMARY: Biodistribution studies of 11C tracers
- Type: in vivo, Wistar rats
- RECORDED_CONDITIONS: 30 min p.i.
QUANTITY_KIND: % ID Liver (% ID)

> print(dat)
                                   molecule  observed.result
1  [11CH3]Oc1ccc(F)c(F)c1C1CCN(c2ccn3c(CC4CC4)nnc3c2Cl)CC1 [[^11C]B-10]             16.2
2  [11CH3]Oc1cc(F)cc(F)c1C1CCN(c2ccn3c(CC4CC4)nnc3c2Cl)CC1 [[^11C]B-7]             14.6
3  [11CH3]Oc1c(F)ccc(F)c1C1CCN(c2ccn3c(CC4CC4)nnc3c2Cl)CC1 [[^11C]B-2]             22.7
4  [11CH3]Oc1c(F)ccc(F)c1C1CCN(c2ccn3c(CC4CC4)nnc3c2C(F)(F)F)CC1 [[^11C]B-3]             31.3
5  [11CH3]Oc1cccc(F)c1C1CCN(c2ccn3c(CC4CC4)nnc3c2Cl)CC1 [[^11C]B-6]             17.0
6  [11CH3]Oc1ccc(F)cc1C1CCN(c2ccn3c(CC4CC4)nnc3c2Cl)CC1 [[^11C]B-4]             14.2

###

Catalogue of compounds with associated % ID Stomach
- PROTOCOL_SUMMARY: Biodistribution studies of 11C tracers
- Assay type: in vivo, Wistar rats
- RECORDED_CONDITIONS: 2 min p.i.
QUANTITY_KIND: % ID Stomach (% ID)

> print(dat)
                                   compound  unit.symbol  observed.result
1  [11CH3]Oc1ccc(F)c(F)c1C1CCN(c2ccn3c(CC4CC4)nnc3c2Cl)CC1 [[^11C]B-10]         % ID              1.8
2  [11CH3]Oc1c(F)ccc(F)c1C1CCN(c2ccn3c(CC4CC4)nnc3c2Cl)CC1 [[^11C]B-2]         % ID              1.4
3  [11CH3]Oc1ccc(F)cc1C1CCN(c2ccn3c(CC4CC4)nnc3c2Cl)CC1 [[^11C]B-4]         % ID              1.5
4  [11CH3]Oc1c(F)ccc(F)c1C1CCN(c2ccn3c(CC4CC4)nnc3c2C(F)(F)F)CC1 [[^11C]B-3]         % ID              1.5
5  [11CH3]Oc1cccc(F)c1C1CCN(c2ccn3c(CC4CC4)nnc3c2Cl)CC1 [[^11C]B-6]         % ID              1.3
6  [11CH3]Oc1cc(F)cc(F)c1C1CCN(c2ccn3c(CC4CC4)nnc3c2Cl)CC1 [[^11C]B-7]         % ID              1.5

###

The following compounds are shown together with reported % ID Kidneys values.
- PROTOCOL_SUMMARY: Biodistribution studies of 11C tracers
- Type: in vivo, Wistar rats
- RECORDED_CONDITIONS: 30 min p.i.
QUANTITY_KIND: % ID Kidneys (% ID)

> print(dat)
                                   compound  quantity.kind  unit.symbol  observed.result
1  [11CH3]Oc1ccc(F)c(F)c1C1CCN(c2ccn3c(CC4CC4)nnc3c2Cl)CC1 [[^11C]B-10]   % ID Kidneys         % ID              3.3
2  [11CH3]Oc1ccc(F)cc1C1CCN(c2ccn3c(CC4CC4)nnc3c2Cl)CC1 [[^11C]B-4]   % ID Kidneys         % ID              4.0
3  [11CH3]Oc1cccc(F)c1C1CCN(c2ccn3c(CC4CC4)nnc3c2Cl)CC1 [[^11C]B-6]   % ID Kidneys         % ID              3.0
4  [11CH3]Oc1c(F)ccc(F)c1C1CCN(c2ccn3c(CC4CC4)nnc3c2C(F)(F)F)CC1 [[^11C]B-3]   % ID Kidneys         % ID              3.4
5  [11CH3]Oc1cc(F)cc(F)c1C1CCN(c2ccn3c(CC4CC4)nnc3c2Cl)CC1 [[^11C]B-7]   % ID Kidneys         % ID              2.8
6  [11CH3]Oc1c(F)ccc(F)c1C1CCN(c2ccn3c(CC4CC4)nnc3c2Cl)CC1 [[^11C]B-2]   % ID Kidneys         % ID              4.3

###

- PROTOCOL_SUMMARY: Biodistribution studies of 11C tracers
- Type: in vivo, Wistar rats
- RECORDED_CONDITIONS: 2 min p.i.
QUANTITY_KIND: % ID Spleen + Pancreas (% ID)

> print(dat)
                                   molecule           quantity.kind  unit.symbol  observed.result
1  [11CH3]Oc1cccc(F)c1C1CCN(c2ccn3c(CC4CC4)nnc3c2Cl)CC1 [[^11C]B-6]  % ID Spleen + Pancreas         % ID              1.4
2  [11CH3]Oc1ccc(F)c(F)c1C1CCN(c2ccn3c(CC4CC4)nnc3c2Cl)CC1 [[^11C]B-10]  % ID Spleen + Pancreas         % ID              1.5
3  [11CH3]Oc1c(F)ccc(F)c1C1CCN(c2ccn3c(CC4CC4)nnc3c2C(F)(F)F)CC1 [[^11C]B-3]  % ID Spleen + Pancreas         % ID              2.0
4  [11CH3]Oc1ccc(F)cc1C1CCN(c2ccn3c(CC4CC4)nnc3c2Cl)CC1 [[^11C]B-4]  % ID Spleen + Pancreas         % ID              1.9
5  [11CH3]Oc1c(F)ccc(F)c1C1CCN(c2ccn3c(CC4CC4)nnc3c2Cl)CC1 [[^11C]B-2]  % ID Spleen + Pancreas         % ID              1.4
6  [11CH3]Oc1cc(F)cc(F)c1C1CCN(c2ccn3c(CC4CC4)nnc3c2Cl)CC1 [[^11C]B-7]  % ID Spleen + Pancreas         % ID              1.3

All figures here come from patent US20130230459A1.
